system: EGFR wildtype (WT) (Homo sapiens, UniProt P00533)
Sequence (P00533 25-1210): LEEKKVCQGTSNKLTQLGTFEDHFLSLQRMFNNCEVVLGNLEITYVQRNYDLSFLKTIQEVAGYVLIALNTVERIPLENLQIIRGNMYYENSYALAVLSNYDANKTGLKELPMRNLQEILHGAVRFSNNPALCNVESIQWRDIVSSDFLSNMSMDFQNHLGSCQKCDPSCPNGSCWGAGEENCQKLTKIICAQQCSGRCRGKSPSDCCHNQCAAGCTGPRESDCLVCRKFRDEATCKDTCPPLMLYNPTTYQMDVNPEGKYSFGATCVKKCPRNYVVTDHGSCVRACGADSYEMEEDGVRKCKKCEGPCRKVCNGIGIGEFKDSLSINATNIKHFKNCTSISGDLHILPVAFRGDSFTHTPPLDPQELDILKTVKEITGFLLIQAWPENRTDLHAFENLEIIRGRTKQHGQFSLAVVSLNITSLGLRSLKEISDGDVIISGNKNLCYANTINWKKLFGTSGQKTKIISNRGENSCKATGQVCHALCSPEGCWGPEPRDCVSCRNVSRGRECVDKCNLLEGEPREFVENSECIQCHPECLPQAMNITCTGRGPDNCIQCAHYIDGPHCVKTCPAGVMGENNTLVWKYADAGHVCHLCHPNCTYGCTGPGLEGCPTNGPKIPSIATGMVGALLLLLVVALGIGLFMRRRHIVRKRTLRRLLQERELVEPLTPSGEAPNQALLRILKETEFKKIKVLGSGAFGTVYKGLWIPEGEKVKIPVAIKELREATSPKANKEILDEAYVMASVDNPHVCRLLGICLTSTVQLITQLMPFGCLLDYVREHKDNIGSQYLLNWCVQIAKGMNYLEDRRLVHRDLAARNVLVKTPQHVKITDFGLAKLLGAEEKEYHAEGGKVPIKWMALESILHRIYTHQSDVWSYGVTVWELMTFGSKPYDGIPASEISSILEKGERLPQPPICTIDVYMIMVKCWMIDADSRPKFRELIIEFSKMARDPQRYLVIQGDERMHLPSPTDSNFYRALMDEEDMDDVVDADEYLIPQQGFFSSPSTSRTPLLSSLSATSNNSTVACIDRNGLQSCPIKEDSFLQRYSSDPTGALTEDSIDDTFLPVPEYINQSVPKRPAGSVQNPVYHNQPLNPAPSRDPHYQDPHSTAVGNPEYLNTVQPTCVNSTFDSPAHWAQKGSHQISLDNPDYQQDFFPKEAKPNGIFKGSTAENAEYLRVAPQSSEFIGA
method summary: Biochemical EGFR kinase inhibition assay (Lance Ultra TR-FRET), wildtype
cond: ATP at Km; read-out: IC50 WT (nM), Km ATP
Method: Biochemical EGFR kinase assays were conducted using Lance Ultra time-resolved fluorescence resonance energy transfer (TR-FRET) technology from Perkin-Elmer. […] Each kinase reactions were incubated at room temperature for 1 hour and then stopped by the addition of 4 μL of stop solution (10 mM EDTA). […] After 60 minutes incubation at room temperature the LANCE signal was measured on an EnVision Multilabel Reader (Perkin-Elmer). […]
Counter-ions that a name gives are not always drawn.
reported property: IC50 (nM)

{"molecule": "Cc1cnc(C#Cc2cnc(Nc3ccnc(-c4cnn(S(=O)(=O)C5CC5)c4)n3)cc2N[C@@H]2CCC[C@H](O)C2)cn1", "IC50 (nM)": 286}
{"molecule": "O=S(=O)(C1CC1)n1cc(-c2nccc(Nc3cc(N[C@H]4CC[C@@H](O)CC4)c(C#CC4(O)CCCCC4)cn3)n2)cn1", "IC50 (nM)": 150}

1. CC1(CO)CCN(c2cc(Nc3ccnc(-c4cnn(S(=O)(=O)C5CC5)c4)n3)ncc2C#CC2(O)CCCCC2)CC1
2. CN(C)CCC1CCN(c2cc(Nc3ccnc(-c4cnn(S(=O)(=O)C5CC5)c4)n3)ncc2C#Cc2cnn(C)c2)CC1 [Example 294, formate]
3. COC1(C)CCN(c2cc(Nc3ccnc(-c4cnn(S(=O)(=O)C5CC5)c4)n3)ncc2C#Cc2cccnc2)CC1
4. CN(C)C[C@H]1CC[C@@H](Nc2cc(Nc3ccnc(-c4cnn(S(=O)(=O)C5CC5)c4)n3)ncc2C#Cc2cnn(C3CC3)c2)CC1
Given 4 molecules, produce a descending ranking by IC50. # output: labels, in the requested order
3, 1, 4, 2

Values were extracted from patent US11981658B2.
